Test system: antibodies in sera from SARS patients (sera 1a, 1b, 2, 6, 37, 62, London, SARS-yellow, SARS-green)
Type: binding, human
// reported Binding of serum 1b to looped/cyclic peptides of protein X4 of SARS-CoV Urbani per item
measured_attribute: Binding of serum 1b to looped/cyclic peptides of protein X4 of SARS-CoV Urbani

{"columns": ["sequence", "number"],
 "data": [
  ["LRARSVSPKLFIRQE", 0.6],
  ["GTRHTYQLRARSVSP", 0.5],
  ["HFAFACADGTRHTYQ", 0.5],
  ["LTCTSTHFAFACADG", 0.3],
  ["ADGTRHTYQLRARSV", 0.4],
  ["ELYSPLFLIVAALVF", 0.4],
  ["FLIVAALVFLILCFT", 0.4],
  ["KIILFLTLIVFTSCE", 0.2],
  ["PCPSGTYEGNSPFHP", 0.1],
  ["LYSPLFLIVAALVFL", 0.3],
  ["VSPKLFIRQEEVQQE", 1.0],
  ["PLFLIVAALVFLILC", 0.1],
  ["IVAALVFLILCFTIK", 0.4],
  ["TCTSTHFAFACADGT", 0.6],
  ["CTSTHFAFACADGTR", 0.4]
]}

* * *

# Binding of serum 1b to looped/cyclic peptides of protein M of SARS-CoV Urbani annotations
System: antibodies in sera from SARS patients (sera 1a, 1b, 2, 6, 37, 62, London, SARS-yellow, SARS-green)
Type: binding, human
measured_attribute: Binding of serum 1b to looped/cyclic peptides of protein M of SARS-CoV Urbani

{"columns": ["sequence", "number"],
 "data": [
  ["SELVIGAVIIRGHLR", 0.7],
  ["PLMESELVIGAVIIR", 0.6],
  ["YIIKLVFLWLLWPVT", 0.8],
  ["ETNILLNVPLRGTIV", 0.6],
  ["TDSGFAAYNRYRIGN", 0.5],
  ["TSRTLSYYKLGASQR", 0.3],
  ["VGLMWLSYFVASFRL", 0.3],
  ["VATSRTLSYYKLGAS", 0.6]
]}

* * *

System: antibodies in sera from SARS patients (sera 1a, 1b, 2, 6, 37, 62, London, SARS-yellow, SARS-green)
Type: binding, human
Item-by-item account of Binding of serum SARS-yellow to looped/cyclic peptides of protein X1 of SARS-CoV Urbani
measured_attribute: Binding of serum SARS-yellow to looped/cyclic peptides of protein X1 of SARS-CoV Urbani

{"columns": ["sequence", "number"],
 "data": [
  ["TEGDGISTPKLKEDY", 0.3],
  ["DPPNVQIHTIDGSSG", 0.2],
  ["KDYVVVHGYFTEVYY", 0.5],
  ["TIVVTEGDGISTPKL", 0.5],
  ["TIDGSSGVANPAMDP", 0.2]
]}

* * *

Test system: antibodies in sera from SARS patients (sera 1a, 1b, 2, 6, 37, 62, London, SARS-yellow, SARS-green)
Format: binding, human
measured_attribute: Binding of serum SARS-green to linear peptides of protein X4 of SARS-CoV Urbani

{"columns": ["sequence", "number"],
 "data": [
  ["AFACADGTRHTYQLR", 0.4],
  ["KLFIRQEEVQQELYS", 0.6],
  ["PLFLIVAALVFLILC", 0.5],
  ["TCTSTHFAFACADGT", 0.6],
  ["DGTRHTYQLRARSVS", 0.4],
  ["FTSCELYHYQECVRG", 0.5],
  ["LTLIVFTSCELYHYQ", 0.7],
  ["ARSVSPKLFIRQEEV", 0.6],
  ["CELYHYQECVRGTTV", 0.7],
  ["TRHTYQLRARSVSPK", 0.6],
  ["FLTLIVFTSCELYHY", 0.6],
  ["ALTCTSTHFAFACAD", 0.8],
  ["TSCELYHYQECVRGT", 0.5],
  ["QEEVQQELYSPLFLI", 1.0],
  ["FLIVAALVFLILCFT", 0.5]
]}
